Measured values drawn from patent US5948784A for this set.

Overview of reported pIC50 across a group of compounds:
System: [^3 H]-adenosine uptake in erythrocytes
procedure.summary: Inhibitory Effect on [^3 H]-Adenosine Uptake (washed erythrocytes)
Type: cell-based, human (healthy male adult)
assay.setup: Homo sapiens; erythrocyte suspension, 1 hour preincubation at room temperature, 10 seconds uptake; read-out: [^3 H]-Adenosine Uptake Inhibition IC50
Schema: pIC50 number; meaning minus log10 of the concentration expressed in molar units.

Known results for compounds:
{"compound": "COc1cc2nc(N(CCO)CCO)nc(N3CCC(n4c(=O)c5cc(C)ccc5n(C)c4=O)CC3)c2cc1OC", "pIC50": 7.54}
{"compound": "CCOc1cc2nc(N3CCOCC3)nc(N3CCC(n4c(=O)c5cc(C)ccc5n(C)c4=O)CC3)c2cc1OCC.Cl [Compound 10, hydrochloride]", "pIC50": 7.01}
{"compound": "COc1cc2nc(N3CCOCC3)nc(N3CCC(n4c(=O)c5cc(C)ccc5n(C)c4=O)CC3)c2cc1OC", "pIC50": 7.46}
{"compound": "CCCNc1nc(N2CCC(n3c(=O)c4cc(C)ccc4n(C)c3=O)CC2)c2cc(OC)c(OC)cc2n1", "pIC50": 7.30}
{"compound": "COc1cc2nc(N(C)CCN(C)C)nc(N3CCC(n4c(=O)c5cc(C)ccc5n(C)c4=O)CC3)c2cc1OC", "pIC50": 7.21}
{"compound": "COc1cc2nc(N3CCN(C)CC3)nc(N3CCC(n4c(=O)c5cc(C)ccc5n(C)c4=O)CC3)c2cc1OC", "pIC50": 7.19}

Consider the additional compound presented here.
Identify measured pIC50 obtained with [^3 H]-adenosine uptake in erythrocytes for `COc1cc2nc(N3CCC(C(=O)O)CC3)nc(N3CCC(n4c(=O)c5cc(C)ccc5n(C)c4=O)CC3)c2cc1OC` .
7.14
